# method: Human HepG2 cell viability assay in 384 well format
# Type: toxicity, cell-based
# Design: dose 125 nL, time 70.5 hour; concentration not given beside the values
# experimentalContext: HepG2 cells, read-out: Inhibition
measurementType: cytotoxicity at 70.5 h (%)

compound=CCN(C)S(=O)(=O)N1C[C@@H]2CC[C@H](C1)N(Cc1cscn1)C2=O unitsymbol=% experimentalresult=-8.95
compound=CCCS(=O)(=O)N1C[C@H]2C[C@H](C(=O)Nc3cccnc3)[C@@H](C1)O2 unitsymbol=% experimentalresult=-4.17
compound=O=C(NCCCO)c1cnc(-c2ccccc2)nc1O unitsymbol=% experimentalresult=-2.27
compound=CO[C@H]1CCN(Cc2c(C)noc2C)[C@@H]2CN(Cc3ccncc3)C[C@H]12 unitsymbol=% experimentalresult=-5.37
compound=COCCN1CCc2cc(C(=O)NC(C)C)c(NCC3CC3)nc2CC1 unitsymbol=% experimentalresult=-0.245
compound=CNC(=O)N1CCC2(CC1)CN(C)c1ccc(F)cc12 unitsymbol=% experimentalresult=2.16
compound="CC(NC(=O)C1=NN(C)C(=O)CC1)c1ccc(Cl)cc1Cl (stereo not drawn)" unitsymbol=% experimentalresult=-3.67
compound=CC1CCN(c2ncc(-c3ccccc3F)c(-c3nccn3C)n2)CC1 unitsymbol=% experimentalresult=-2.25
compound=CCS(=O)(=O)N(C)CCCNC(=O)c1cc(Cl)cc2cccnc12 unitsymbol=% experimentalresult=-11
compound=Cc1ccccc1CC(C)(C)NC(=O)COc1cccc(C(N)=O)c1 unitsymbol=% experimentalresult=-0.108
compound="Fc1ccc(Oc2ccc(CNCC3CNc4ccnn4C3)cn2)cc1 (stereo not drawn)" unitsymbol=% experimentalresult=-12.4
compound="c1cnc(N2CCOC3(CCCN(c4cnccn4)C3)C2)nc1 (stereo not drawn)" unitsymbol=% experimentalresult=-8.79
compound="COCCn1cc(C(=O)NC2CCS(=O)(=O)C2)c2ccccc2c1=O (stereo not drawn)" unitsymbol=% experimentalresult=-14.8
compound="Cn1ccnc1CN1CCC(F)(F)C2(CCN(c3cnccn3)C2)C1 (stereo not drawn)" unitsymbol=% experimentalresult=19.3
compound="Clc1ccc2cccnc2c1CN1CCCCC1Cn1cncn1 (stereo not drawn)" unitsymbol=% experimentalresult=-4.31
compound="Cc1ccc2c(c1)OC(C)(C)CC2NC(=O)C1CCN(S(C)(=O)=O)CC1 (stereo not drawn)" unitsymbol=% experimentalresult=-5.08
compound=COCCNC(=O)NC1(c2ccccc2F)CC1 unitsymbol=% experimentalresult=-5.87
compound="CC(CNCc1ccc(Br)cc1)Oc1ccccn1 (stereo not drawn)" unitsymbol=% experimentalresult=2.54
compound=CCO[C@@H]1CC[C@H]2[C@H]1OCCN2C(=O)c1ccc(C)o1 unitsymbol=% experimentalresult=-4.6
compound="Cc1ccc(CN2CCCC23Cc2ccccc2CNC3=O)cc1 (stereo not drawn)" unitsymbol=% experimentalresult=21.9
compound=O=C(NC1CCCC1)C1CCN(c2cc(-n3ccnc3)ncn2)CC1 unitsymbol=% experimentalresult=12.8
compound="O=C(CC1Cn2ncnc2NC1=O)Nc1ccc(F)c(F)c1 (stereo not drawn)" unitsymbol=% experimentalresult=-7.69
compound=CC(=O)NCc1nnc2n1CCN(c1ncnc3c(C)csc13)CC2 unitsymbol=% experimentalresult=27

Origin of the recorded values: ChEMBL document CHEMBL3507680
